Just for reference, patent US20220194999A1 is where these values come from.

// values below are reported average relative binding (%)
Target: T1, HLA-A*02:01 class I complex (conditional p*HLA*02:01, biotinylated heavy chain with beta2-microglobulin) (human, biotinylated heavy chain)
T1 construct: UV-labile peptide p* is cleaved and exchanged for the test peptide; also called HLA 2.1
Experiment: UV peptide exchange, HLA class I ELISA; low end of the group, member by Table 4
endpoint.name: average relative binding (%)

binder	endpoint.name	endpoint.value
LLVVGAAGV (also called M051) [KRAS_G12A2 mimic peptide LLVVGAAGV]	average relative binding (%)	33 to 38%
VLPCEPPEV (also called M231) [TP53_Y220C2 mimic peptide VLPCEPPEV]	average relative binding (%)	70 to 79%
YQGSYGFLV (also called M202) [TP53_R110L4 mimic peptide YQGSYGFLV]	average relative binding (%)	50 to 58%
KLYPVQLWV (also called M131) [TP53_C141Y2 mimic peptide KLYPVQLWV]	average relative binding (%)	80 to 88%
YLDCGIHSV (also called M022) [CTNNB1_S33C5 mimic peptide YLDCGIHSV]	average relative binding (%)	102 to 113%
VMPCEPPEV (also called M232) [TP53_Y220C3 mimic peptide VMPCEPPEV]	average relative binding (%)	61 to 69%
CYLYYYSYLL (also called M101) [PTEN R173C2 mimic peptide CYLYYYSYLL]	average relative binding (%)	18 to 28%
ALNNMFCQL (also called M160) [TP53.K132N mutant peptide ALNNMFCQL]	average relative binding (%)	41 to 49%
VLSDAISAV (also called M121; SOX17_S40312) [SOX17_S403I2 mimic peptide VLSDAISAV]	average relative binding (%)	90 to 100%
